quantity-name: melting point

Worked set:
{"compound": "CC(=O)OC1(c2ccc3c(c2)OCO3)C(=O)N(Cc2ccc(Cl)cc2)c2ccccc21 (configuration not stated)", "experimental-value": "146 to 148 °C"}
{"compound": "c1ccc2c(CCN=c3sc4ccccc4s3)c[nH]c2c1", "experimental-value": "149 to 150 °C"}
{"compound": "COC(=O)CC1=C(C)Cc2cc(F)c(OC)cc21", "experimental-value": "61 to 62 °C"}
{"compound": "CCC(C1OC(=O)c2ccccc21)[N+](=O)[O-] (configuration not stated)", "experimental-value": "90 to 92 °C"}
{"compound": "Nc1c([N+](=O)[O-])cc(F)c(Cl)c1F", "experimental-value": "96 to 97 °C"}

Name the recorded melting point of the compound listed here: Cc1cc(C)n(Cc2ccc(Cl)c(Cl)c2)c(=O)c1C#N
139 to 141 °C

For the compound CCOC(=O)OC12Oc3cc(C(C)C)ccc3C1(O)C(=O)c1ccccc12 (configuration not stated) , give its reported melting point.
144 to 147 °C
